- Test system: SK-MEL-2 melanoma
- method: NCI-60 one-dose screen, 48 h (100 = growth as untreated, 0 = no growth, -100 = all killed)
- experimental-parameters: 10 µM unless noted
Compounds without any hit were thinned out: in the full panel of roughly 83,000, 20% have a hit.
Each item that follows carries a reported growth.
Give your result in % as a bare value.

O=C(CNC(=O)c1cccc2ccccc12)Nc1ccccc1Oc1ccccc1; 34.8
COC(=O)CC/C(C)=N\Nc1ccc([N+](=O)[O-])cc1; 57.3
CN(C)c1ccc(-c2ccc(-c3ccc(C(=N)N)cn3)o2)cc1; -85.4
NS(=O)(=O)c1ccc(CN2C(=O)c3cccc4cccc(c34)C2=O)cc1; 93
COc1ccc2c(c1)NC(=O)CN2c1nc(NC2CC2)nc2ccccc12; 25.7

Briefly, growth measured for N#Cc1c(NC(=O)c2ccc([N+](=O)[O-])o2)[n+]([O-])c2cc(F)c(F)cc2[n+]1[O-] : 34.6

Briefly, growth measured for O=C1CCC(=O)N1Cc1ccccc1 : 95.1

Briefly, growth measured for NC(=O)c1ccc2c(c1)OCO2 : 114

Briefly, growth measured for Cc1ccc2nc(SCn3nnc4ccccc4c3=O)[nH]c2c1 : 69.5
